assay target: UniProt A0A1D6K6U5
Sequence (A0A1D6K6U5 71-825): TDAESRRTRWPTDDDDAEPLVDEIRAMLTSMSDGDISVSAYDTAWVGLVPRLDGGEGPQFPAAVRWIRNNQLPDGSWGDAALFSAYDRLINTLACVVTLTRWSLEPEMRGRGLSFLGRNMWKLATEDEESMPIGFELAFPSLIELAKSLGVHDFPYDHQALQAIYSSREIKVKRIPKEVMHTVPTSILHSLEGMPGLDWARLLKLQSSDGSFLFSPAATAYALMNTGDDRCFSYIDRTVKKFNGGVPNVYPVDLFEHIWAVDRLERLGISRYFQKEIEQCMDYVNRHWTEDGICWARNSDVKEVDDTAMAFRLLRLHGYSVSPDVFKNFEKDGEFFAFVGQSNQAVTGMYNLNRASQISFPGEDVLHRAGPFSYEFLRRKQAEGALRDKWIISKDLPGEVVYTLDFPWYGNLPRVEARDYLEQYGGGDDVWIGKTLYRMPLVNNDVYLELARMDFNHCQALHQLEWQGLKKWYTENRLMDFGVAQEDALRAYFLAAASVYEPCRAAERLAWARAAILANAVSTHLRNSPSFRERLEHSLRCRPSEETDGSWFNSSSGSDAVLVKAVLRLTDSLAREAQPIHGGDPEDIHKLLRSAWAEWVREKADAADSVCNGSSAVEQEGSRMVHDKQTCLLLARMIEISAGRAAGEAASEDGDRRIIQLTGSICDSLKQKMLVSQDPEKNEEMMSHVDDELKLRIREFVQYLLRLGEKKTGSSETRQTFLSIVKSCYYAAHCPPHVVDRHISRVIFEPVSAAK
experimental details: in vitro enzyme assay with purified recombinant CPS and GGPP, GC-FID
endpoint label: IC50
Include the unit after the number when you answer.

stdin: Supply measured IC50 of C[N+]1(C)CCCCC1 [DPC, 1,1-dimethyl-piperidinium chloride] in your reply.
stdout: 4 mM

###

assay target: ZmCPS1 (An1) (Zea mays)
Sequence (Q41771 64-824): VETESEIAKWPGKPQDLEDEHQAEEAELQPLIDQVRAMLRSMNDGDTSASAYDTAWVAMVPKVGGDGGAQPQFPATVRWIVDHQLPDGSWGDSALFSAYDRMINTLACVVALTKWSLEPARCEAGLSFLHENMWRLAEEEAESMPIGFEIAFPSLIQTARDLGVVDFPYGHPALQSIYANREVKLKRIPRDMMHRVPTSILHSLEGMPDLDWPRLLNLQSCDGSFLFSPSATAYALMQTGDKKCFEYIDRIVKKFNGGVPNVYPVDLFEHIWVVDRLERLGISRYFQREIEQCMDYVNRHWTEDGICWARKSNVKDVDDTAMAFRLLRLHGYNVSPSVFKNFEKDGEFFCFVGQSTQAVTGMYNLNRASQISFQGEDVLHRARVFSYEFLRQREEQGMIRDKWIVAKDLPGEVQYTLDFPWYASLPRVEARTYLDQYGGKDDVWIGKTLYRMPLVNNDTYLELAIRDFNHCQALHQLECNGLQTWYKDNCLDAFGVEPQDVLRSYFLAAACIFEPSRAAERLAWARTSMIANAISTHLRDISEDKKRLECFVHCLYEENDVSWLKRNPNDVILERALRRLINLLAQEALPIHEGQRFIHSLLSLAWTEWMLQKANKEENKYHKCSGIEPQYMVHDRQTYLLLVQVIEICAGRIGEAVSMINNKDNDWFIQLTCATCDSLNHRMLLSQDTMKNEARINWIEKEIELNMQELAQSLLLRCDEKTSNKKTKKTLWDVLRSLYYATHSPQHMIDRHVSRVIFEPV
experimental details: in vitro enzyme assay with purified recombinant CPS and GGPP, GC-FID
endpoint label: IC50 (mM)
Reply with just the number (in mM).

stdin: Read the entry C[N+]1(C)CCCCC1 [DPC, 1,1-dimethyl-piperidinium chloride] and write its reported IC50.
stdout: 2

FYI, the data here is from paper PMC7194013.
